Reference for the values: patent US20240279318A1

Assay Target: T1, AFP158/HLA-A*02:01 complex (human)
T1 construct: biotinylated on the BSP by BirA for ELISA and panning; also called biotinylated AFP158/HLA-A*02:01 complex; Bio-AFP158
Method Description: SPR, crude scFv captured;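 also: Peptide–MHC complex flowed at several concentrations over sensorchip-captured scFv, Kd derived from on- and off-rates obtained from the association and dissociation curves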
Attribute: Kd
Output spec: scalar in nM, unitless text.

Any idea what Kd was measured for AS170036 VL1VH1 HG108T (scFv) scFv: QSALTQPRSVSGSPGQSVTISCAGTSSDVGSENYVSWYQQHPGKAPKLMIYQVNKRASGVPDRFSGSKSGNTASLTISGLQAEDEADYYCASYRSSDHNIVFGGGTKLTVLGGGGSGGGGSGGGGSEVQLVESGGGLVQPGGSLRLSCAASGFTFSSYAMSWVRQAPGKGLEWVSTINSGTGSPYYADSVKGRFTISRDNSKNTLYLQMNSLRAEDTAVYYCAKNFFDGSWFLTPPAMDYWGQGTLVTVSSHHHHHH ?
530

Please give the measured Kd for this binder: AS170036 VL1VH1 HP58S (scFv) scFv: QSALTQPRSVSGSPGQSVTISCAGTSSDVGSENYVSWYQQHPGKAPKLMIYQVNKRASGVPDRFSGSKSGNTASLTISGLQAEDEADYYCASYRSSDHNIVFGGGTKLTVLGGGGSGGGGSGGGGSEVQLVESGGGLVQPGGSLRLSCAASGFTFSSYAMSWVRQAPGKGLEWVSTINSGTGSSYYADSVKGRFTISRDNSKNTLYLQMNSLRAEDTAVYYCAKNFFDGSWFLGPPAMDYWGQGTLVTVSSHHHHHH
780

# query: Kd of entry AS170036 VL1VH1 HP58W (scFv) scFv: QSALTQPRSVSGSPGQSVTISCAGTSSDVGSENYVSWYQQHPGKAPKLMIYQVNKRASGVPDRFSGSKSGNTASLTISGLQAEDEADYYCASYRSSDHNIVFGGGTKLTVLGGGGSGGGGSGGGGSEVQLVESGGGLVQPGGSLRLSCAASGFTFSSYAMSWVRQAPGKGLEWVSTINSGTGSWYYADSVKGRFTISRDNSKNTLYLQMNSLRAEDTAVYYCAKNFFDGSWFLGPPAMDYWGQGTLVTVSSHHHHHH
2700

// query Kd value for entry AS170036 VL1VH1 HD102S (scFv) scFv: QSALTQPRSVSGSPGQSVTISCAGTSSDVGSENYVSWYQQHPGKAPKLMIYQVNKRASGVPDRFSGSKSGNTASLTISGLQAEDEADYYCASYRSSDHNIVFGGGTKLTVLGGGGSGGGGSGGGGSEVQLVESGGGLVQPGGSLRLSCAASGFTFSSYAMSWVRQAPGKGLEWVSTINSGTGSPYYADSVKGRFTISRDNSKNTLYLQMNSLRAEDTAVYYCAKNFFSGSWFLGPPAMDYWGQGTLVTVSSHHHHHH
520

Could you now consider this next binder?
Requested field: Kd. Item: AS170036 VL1VH1 HG56S (scFv) scFv: QSALTQPRSVSGSPGQSVTISCAGTSSDVGSENYVSWYQQHPGKAPKLMIYQVNKRASGVPDRFSGSKSGNTASLTISGLQAEDEADYYCASYRSSDHNIVFGGGTKLTVLGGGGSGGGGSGGGGSEVQLVESGGGLVQPGGSLRLSCAASGFTFSSYAMSWVRQAPGKGLEWVSTINSGTSSPYYADSVKGRFTISRDNSKNTLYLQMNSLRAEDTAVYYCAKNFFDGSWFLGPPAMDYWGQGTLVTVSSHHHHHH
160
